Could you please report measured Fold Induction Average, Z3V1 Assay 33 μM for the items listed next?
molecular target: Bombyx mori EcR (VP16-BmEcR, CVBE) (Bombyx mori); construct: expressed in transfected cells; assay: Z3 assay (HEK-293 clone Z3 with CVBE and 6x EcRE LacZ, β-galactosidase reporter); type: cell-based; details: 48 h, average of two wells
Sequence (P49881 86-606): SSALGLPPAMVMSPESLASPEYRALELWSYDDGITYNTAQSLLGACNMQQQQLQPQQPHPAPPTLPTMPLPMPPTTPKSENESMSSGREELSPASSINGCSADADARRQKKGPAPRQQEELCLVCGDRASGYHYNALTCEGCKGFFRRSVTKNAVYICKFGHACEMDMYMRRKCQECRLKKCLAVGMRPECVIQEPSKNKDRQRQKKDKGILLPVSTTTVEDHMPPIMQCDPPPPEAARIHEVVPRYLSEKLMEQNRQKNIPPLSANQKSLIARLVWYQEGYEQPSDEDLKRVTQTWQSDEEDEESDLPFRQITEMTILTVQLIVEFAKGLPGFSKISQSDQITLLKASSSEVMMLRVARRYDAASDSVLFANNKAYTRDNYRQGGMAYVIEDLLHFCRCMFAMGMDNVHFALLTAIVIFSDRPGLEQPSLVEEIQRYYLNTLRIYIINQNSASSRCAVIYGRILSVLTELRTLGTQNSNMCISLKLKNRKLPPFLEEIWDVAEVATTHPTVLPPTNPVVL
Give the value in fold but do not write fold after it.

Input line: Requested read-out: Fold Induction Average, Z3V1 Assay 33 μM. Entry: COC(=O)c1ccc(C(=O)N2c3ccc(F)cc3C(Nc3ccc(F)cc3)CC2C)cc1 (stereo not drawn) [Compound I-37]
Output line: 1

Input line: Which Fold Induction Average, Z3V1 Assay 33 μM value belongs to C[C@H]1C[C@H](Nc2ccc(F)cc2)c2cc(F)ccc2N1C(=O)c1cccc(F)c1 (relative stereo) ?
Output line: 153

Input line: Value lookup for Fold Induction Average, Z3V1 Assay 33 μM; key = Cc1ccc(C(=O)N2c3ccccc3C(Nc3ccccc3)CC2C)cc1 (mixture of isomers) [Compound I-39]
Output line: 4

Input line: I would be grateful if you could share the reported Fold Induction Average, Z3V1 Assay 33 μM for COc1ccc(C=CC(=O)N2c3ccccc3[C@@H](Nc3ccccc3)C[C@@H]2C)cc1OC (relative stereo) .
Output line: 1

Input line: Fill in the blank: the reported Fold Induction Average, Z3V1 Assay 33 μM of Cc1ccc(N[C@H]2C[C@H](C)N(C(=O)c3ccc(C)c(F)c3)c3ccc(C)cc32)cc1 (relative stereo) is ____.
Output line: 3

Input line: Request the reported Fold Induction Average, Z3V1 Assay 33 μM associated with C[C@H]1C[C@H](Nc2ccccc2)c2ccccc2N1C(=O)c1ccc(C(F)(F)F)cc1 (relative stereo)
Output line: 2

Input line: # get_value(readout='Fold Induction Average, Z3V1 Assay 33 μM', item= Cc1ccc(NC2CC(C)N(C(=O)c3ccc(C)cc3)c3ccccc32)cc1 (mixture of isomers) )
Output line: 3

Input line: Item under review: C[C@H]1C[C@H](Nc2ccccc2)c2ccccc2N1C(=O)c1ccccc1 (relative stereo) . Reported Fold Induction Average, Z3V1 Assay 33 μM?
Output line: 1

Input line: What does the data say about its Fold Induction Average, Z3V1 Assay 33 μM? Entry: COc1cccc(C(=O)N2c3ccc(C)cc3[C@@H](Nc3ccc(C)cc3)C[C@@H]2C)c1 (relative stereo)
Output line: 1

Input line: Param item = CC1CC(Nc2ccccc2)c2ccccc2N1C(=O)c1ccc(Cl)nc1 (stereo not drawn) ; retrieve measured Fold Induction Average, Z3V1 Assay 33 μM.
Output line: 4

Input line: Could you share which Fold Induction Average, Z3V1 Assay 33 μM value was measured for COc1ccc(C(=O)N2c3ccccc3C(N(C(=O)c3cccs3)c3ccccc3)CC2C)cc1 (stereo not drawn) ?
Output line: 4

Input line: Query (compound): CC1CC(Nc2ccccc2)c2ccccc2N1C(=O)c1ccno1 (stereo not drawn) ; field requested: Fold Induction Average, Z3V1 Assay 33 μM
Output line: 1

Input line: Which Fold Induction Average, Z3V1 Assay 33 μM is listed for CC1CC(Nc2ccccc2)c2ccccc2N1C(=O)COc1ccc(Cl)cc1 (stereo not drawn) ?
Output line: 1

Input line: // Fold Induction Average, Z3V1 Assay 33 μM lookup, key: Cc1ccc(C(=O)N2c3ccc(F)cc3[C@@H](Nc3ccc(F)cc3)C[C@@H]2C)cc1F (relative stereo)
Output line: 169

Input line: Item under review: CC1CC(Nc2ccccc2)c2ccccc2N1C(=O)Cc1cccc2ccccc12 (stereo not drawn) . Reported Fold Induction Average, Z3V1 Assay 33 μM?
Output line: 1
